Exercise: state measured IC50 for each of the compounds provided.
target: rat brain α4β2 nAChRs (Rattus norvegicus, UniProt P09483+P12390); construct: from tissue; host or cells: whole rat brain membranes; test: [3H]-cytisine displacement, rat brain membranes; format: binding; conditions: rat brain membranes, [3H]-cytisine displacement, mean of n experiments; read-out: IC50 ± SEM, α4β2
Sequence (P09483 31-630): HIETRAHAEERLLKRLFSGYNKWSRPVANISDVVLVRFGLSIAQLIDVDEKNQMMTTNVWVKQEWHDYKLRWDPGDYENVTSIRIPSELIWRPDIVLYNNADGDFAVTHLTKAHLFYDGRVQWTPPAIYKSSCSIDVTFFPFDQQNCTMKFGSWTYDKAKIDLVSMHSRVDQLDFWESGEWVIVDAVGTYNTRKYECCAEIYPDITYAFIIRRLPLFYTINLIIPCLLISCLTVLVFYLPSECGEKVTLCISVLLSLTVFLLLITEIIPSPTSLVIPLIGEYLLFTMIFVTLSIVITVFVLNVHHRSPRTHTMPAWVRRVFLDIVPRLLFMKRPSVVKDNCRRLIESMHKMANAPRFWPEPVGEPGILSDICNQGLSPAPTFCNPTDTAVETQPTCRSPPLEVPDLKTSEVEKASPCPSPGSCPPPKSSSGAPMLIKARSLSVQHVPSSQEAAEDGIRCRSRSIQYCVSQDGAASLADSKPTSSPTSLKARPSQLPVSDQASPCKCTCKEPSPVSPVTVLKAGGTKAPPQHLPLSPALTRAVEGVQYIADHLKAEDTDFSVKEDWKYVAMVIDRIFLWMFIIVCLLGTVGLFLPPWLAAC
Sequence (P12390 25-500): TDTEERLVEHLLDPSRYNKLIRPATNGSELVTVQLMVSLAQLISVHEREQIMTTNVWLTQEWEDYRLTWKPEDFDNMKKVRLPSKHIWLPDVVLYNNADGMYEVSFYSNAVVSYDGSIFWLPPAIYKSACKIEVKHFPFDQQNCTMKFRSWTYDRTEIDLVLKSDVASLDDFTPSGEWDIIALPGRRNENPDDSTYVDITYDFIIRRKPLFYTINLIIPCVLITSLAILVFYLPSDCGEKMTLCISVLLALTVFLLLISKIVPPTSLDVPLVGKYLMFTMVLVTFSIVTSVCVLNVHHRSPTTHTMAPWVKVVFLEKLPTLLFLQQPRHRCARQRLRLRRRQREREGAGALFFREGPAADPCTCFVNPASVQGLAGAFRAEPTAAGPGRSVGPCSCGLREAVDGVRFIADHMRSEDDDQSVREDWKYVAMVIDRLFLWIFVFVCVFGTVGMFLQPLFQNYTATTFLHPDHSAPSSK
Numbers only, in µM.

The cases that follow already have their IC50 on record.
Compound | Target of assay | IC50 (µM)
C[N+](C)(C)C1CSSC1 [MeNTX, N-methylnereistoxin] | rat brain α4β2 nAChRs (Rattus norvegicus, UniProt P09483+P12390) | 120
CN(C)C1CSCSC1 [DMA-DT, 5-dimethylamino-1,3-dithiane] | rat brain α4β2 nAChRs (Rattus norvegicus, UniProt P09483+P12390) | 160
C[N+](C)(C)C1CSCSC1 [TMA-DT, 5-trimethylamino-1,3-dithiane] | rat brain α4β2 nAChRs (Rattus norvegicus, UniProt P09483+P12390) | 290

Read the next record carefully.
Ask | Looking for the measured IC50 of CN(C)C1CSSC1 [NTX, 4-dimethylamino-1,2-dithiolane, reference compound] , can you help?
Reply | 60

---

I'd be grateful if you could share measured pIC50 for these entries.
molecular target: Torpedo electric organ muscle type nAChR (Tetronarce californica, UniProt P02710+P02714+P02718); construct: from tissue; host or cells: Torpedo californica electric organ washed membranes; test: [125I]-α-BTX displacement, Torpedo electric organ membranes; type: binding; details: Torpedo IC50 (single experiment, Figure 7 left), 30 min preincubation before BTX
Sequence (P02710 25-461): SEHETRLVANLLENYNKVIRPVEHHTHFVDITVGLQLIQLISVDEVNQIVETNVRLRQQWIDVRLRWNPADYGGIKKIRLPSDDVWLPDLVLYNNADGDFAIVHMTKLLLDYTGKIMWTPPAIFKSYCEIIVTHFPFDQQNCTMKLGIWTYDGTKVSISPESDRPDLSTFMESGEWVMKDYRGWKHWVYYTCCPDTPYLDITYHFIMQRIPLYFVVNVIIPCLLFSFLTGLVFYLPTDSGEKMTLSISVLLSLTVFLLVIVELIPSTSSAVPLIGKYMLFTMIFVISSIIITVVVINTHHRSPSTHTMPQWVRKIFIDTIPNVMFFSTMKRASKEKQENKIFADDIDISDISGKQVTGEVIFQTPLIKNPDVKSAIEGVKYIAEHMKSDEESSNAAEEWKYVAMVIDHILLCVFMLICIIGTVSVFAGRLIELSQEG
Sequence (P02718 22-522): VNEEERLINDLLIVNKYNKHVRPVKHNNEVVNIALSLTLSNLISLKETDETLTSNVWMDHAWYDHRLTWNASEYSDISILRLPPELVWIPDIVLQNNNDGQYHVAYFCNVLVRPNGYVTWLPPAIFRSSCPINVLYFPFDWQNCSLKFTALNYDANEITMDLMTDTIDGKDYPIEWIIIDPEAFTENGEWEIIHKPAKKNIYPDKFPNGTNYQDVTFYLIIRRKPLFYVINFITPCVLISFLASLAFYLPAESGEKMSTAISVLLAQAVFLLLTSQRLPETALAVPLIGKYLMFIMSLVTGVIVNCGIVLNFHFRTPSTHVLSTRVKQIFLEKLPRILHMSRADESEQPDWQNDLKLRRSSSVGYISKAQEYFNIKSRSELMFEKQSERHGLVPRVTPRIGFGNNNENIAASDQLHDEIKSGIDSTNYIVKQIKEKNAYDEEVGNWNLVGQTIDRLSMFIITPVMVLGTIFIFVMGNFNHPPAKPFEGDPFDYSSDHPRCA
Sequence (P02712 25-493, further chain): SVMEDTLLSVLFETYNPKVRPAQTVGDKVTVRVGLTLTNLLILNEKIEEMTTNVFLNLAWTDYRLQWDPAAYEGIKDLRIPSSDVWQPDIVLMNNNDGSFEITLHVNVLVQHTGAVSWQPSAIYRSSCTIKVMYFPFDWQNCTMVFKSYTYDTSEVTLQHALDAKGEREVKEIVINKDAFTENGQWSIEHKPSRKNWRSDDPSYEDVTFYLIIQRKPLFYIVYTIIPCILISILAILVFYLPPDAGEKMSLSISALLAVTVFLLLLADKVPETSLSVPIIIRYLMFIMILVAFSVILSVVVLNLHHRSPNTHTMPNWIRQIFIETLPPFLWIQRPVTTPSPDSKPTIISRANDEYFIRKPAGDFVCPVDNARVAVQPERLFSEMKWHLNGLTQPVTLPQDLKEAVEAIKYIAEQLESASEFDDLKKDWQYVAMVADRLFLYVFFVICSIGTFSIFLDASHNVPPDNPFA
Sequence (P02714 18-506): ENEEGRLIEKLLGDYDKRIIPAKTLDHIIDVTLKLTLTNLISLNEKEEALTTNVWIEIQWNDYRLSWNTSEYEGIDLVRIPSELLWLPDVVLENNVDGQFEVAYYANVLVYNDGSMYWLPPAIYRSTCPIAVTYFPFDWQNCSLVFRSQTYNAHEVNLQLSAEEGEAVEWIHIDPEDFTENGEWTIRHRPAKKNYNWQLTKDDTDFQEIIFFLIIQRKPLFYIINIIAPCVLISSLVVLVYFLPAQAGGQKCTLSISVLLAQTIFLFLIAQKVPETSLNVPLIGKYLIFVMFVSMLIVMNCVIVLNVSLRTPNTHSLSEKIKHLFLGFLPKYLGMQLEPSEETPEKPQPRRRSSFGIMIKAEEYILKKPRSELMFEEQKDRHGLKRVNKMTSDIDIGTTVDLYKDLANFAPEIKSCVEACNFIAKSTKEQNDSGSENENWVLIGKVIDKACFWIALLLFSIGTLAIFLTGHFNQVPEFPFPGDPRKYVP
Numbers only, as −log10 of the molar value.

Compound | pIC50
C[N+](C)(C)C1CSSC1 | 4.95

Ask | Can you look up the measured pIC50 of CN(C)C1CSSC1 [NTX, 4-dimethylamino-1,2-dithiolane, reference compound] for me?
Reply | 3.60

---

Biological target: Aplysia californica AChBP (Aplysia californica)
Construct: made in house
Sequence (Q8WSF8 entry or part of it): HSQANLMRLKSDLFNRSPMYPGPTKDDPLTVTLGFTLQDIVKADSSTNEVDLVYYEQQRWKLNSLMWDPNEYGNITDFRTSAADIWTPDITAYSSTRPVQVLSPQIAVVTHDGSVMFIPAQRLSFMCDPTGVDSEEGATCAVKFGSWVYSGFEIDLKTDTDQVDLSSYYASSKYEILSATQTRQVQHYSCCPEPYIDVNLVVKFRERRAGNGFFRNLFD
Experiment: [3H]-epibatidine scintillation proximity binding assay, Ac AChBP
Conditions: inhibition of [3H]-epibatidine binding; read-out: IC50 ± SEM, Ac BP
Procedure: The AChBP proteins were expressed and purified according to Hansen et al.. Determination of compound affinity for an AChBP utilized a modification of the Scintillation Proximity Assay reported previously. […] Plates were read on a 1450 MicroBeta TriLux liquid scintillation counter (Wallac) and the output normalized. […] The IC50 values were calculated using GraphPad Prism version 4.02 (GraphPad Software, 2006, San Diego, CA, USA, www.graphpad.com).
Exercise: state measured IC50 for each of the compounds provided.
Give bare numbers, in µM.

Example entries and their recorded answers appear below.
Compound | Target of assay | Measured value
CN(C)C1CSSC1 [NTX, 4-dimethylamino-1,2-dithiolane, reference compound] | Aplysia californica AChBP (Aplysia californica) | 71
C[N+](C)(C)C1CSCSC1 | Aplysia californica AChBP (Aplysia californica) | 20
C[N+](C)(C)C1CSSC1 | Aplysia californica AChBP (Aplysia californica) | 260

Please look at the following compound next.
Ask | What reported IC50 corresponds to "CN(C)C1CSCSC1" on Aplysia californica AChBP (Aplysia californica)?
Reply | 28

---

target: rat brain α4β2 nAChRs (Rattus norvegicus, UniProt P09483+P12390); construct: from tissue; host or cells: whole rat brain membranes; assay: [3H]-cytisine displacement, rat brain membranes; assay type: binding; conditions: single [3H]-cytisine displacement experiment; read-out: α4β2 IC50 (individual experiment, Figure 3)
Result type: IC50 (µM)
One number for each entry, in µM.

Compound | Target of assay | Result type | Measured value
CN(C)C1CSSC1 [NTX, 4-dimethylamino-1,2-dithiolane, reference compound] | rat brain α4β2 nAChRs (Rattus norvegicus, UniProt P09483+P12390) | IC50 | 81.6

We next turn to a different compound, shown below.
Ask | Sample C[N+](C)(C)C1CSSC1 [MeNTX, N-methylnereistoxin] — what was its IC50?
Reply | 121

---

biological target: Torpedo electric organ muscle type nAChR (Tetronarce californica, UniProt P02710+P02714+P02718); construct: from tissue; host or cells: Torpedo californica electric organ washed membranes; experiment: [125I]-α-BTX displacement, Torpedo electric organ membranes; format: binding; settings: [125I]-α-BTX displacement, mean of n experiments; read-out: IC50 ± SEM, Torpedo electric organ
For each of the compounds below, state its pIC50.
Give bare numbers, as −log10 of the molar value.

# example entries with known answers
Compound | Result type | Measured value
CN(C)C1CSSC1 [NTX, 4-dimethylamino-1,2-dithiolane, reference compound] | pIC50 | 3.64
C[N+](C)(C)C1CSCSC1 | pIC50 | 3.82

Please look at the following compound next.
Ask | Tell me the measured pIC50 of "C[N+](C)(C)C1CSSC1" , please.
Reply | 5.03

---

target: rat brain α7 nAChR (Rattus norvegicus, UniProt Q05941); construct: from tissue; host or cells: whole rat brain membranes; assay: [125I]-α-BTX displacement, rat brain membranes; assay type: binding; conditions: single [125I]-αBTX displacement experiment; read-out: α7 IC50 (representative experiment, Figure 6)
Sequence (Q05941 23-502): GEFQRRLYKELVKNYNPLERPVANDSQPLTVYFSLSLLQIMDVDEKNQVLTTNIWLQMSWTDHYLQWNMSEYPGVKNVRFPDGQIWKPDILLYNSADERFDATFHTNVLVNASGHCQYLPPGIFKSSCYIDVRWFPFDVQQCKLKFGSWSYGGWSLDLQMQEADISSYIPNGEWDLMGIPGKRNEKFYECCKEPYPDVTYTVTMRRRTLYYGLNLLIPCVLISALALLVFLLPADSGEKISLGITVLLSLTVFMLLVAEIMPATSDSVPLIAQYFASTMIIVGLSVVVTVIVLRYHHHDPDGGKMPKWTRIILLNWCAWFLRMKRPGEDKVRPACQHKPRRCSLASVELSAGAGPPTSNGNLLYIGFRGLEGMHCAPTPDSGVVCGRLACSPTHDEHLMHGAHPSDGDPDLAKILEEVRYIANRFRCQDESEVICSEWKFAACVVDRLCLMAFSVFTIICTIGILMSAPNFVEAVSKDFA
Result type: pIC50
Answers are plain numbers, as −log10 of the molar value.

Compound | Target of assay | pIC50
C[N+](C)(C)C1CSSC1 | rat brain α7 nAChR (Rattus norvegicus, UniProt Q05941) | 4.05

Ask | So what's the measured pIC50 for this one? CN(C)C1CSSC1 [NTX, 4-dimethylamino-1,2-dithiolane, reference compound]
Reply | 3.08

---

biological target: rat brain α7 nAChR (Rattus norvegicus, UniProt Q05941); construct: from tissue; host or cells: whole rat brain membranes; assay: [125I]-α-BTX displacement, rat brain membranes; format: binding; conditions: rat brain membranes, [125I]-α-BTX displacement, mean of n experiments; read-out: IC50 ± SEM, α7
Task for the reader: assign each of the following compounds its reported IC50.
Answers are plain numbers, in µM.

Before answering, review these 3 worked examples.
Compound | IC50 / µM
CN(C)C1CSCSC1 | 640
C[N+](C)(C)C1CSSC1 | 45
C[N+](C)(C)C1CSCSC1 | 90

Ask | Recorded IC50 of CN(C)C1CSSC1 [NTX, 4-dimethylamino-1,2-dithiolane, reference compound] , please.
Reply | 390

---

Target: L. stagnalis AChBP C187S mutant (Lymnaea stagnalis, UniProt P58154, C206S)
Test: [3H]-epibatidine scintillation proximity binding assay, Ls AChBP C187S mutant
Settings: inhibition of [3H]-epibatidine binding
Experimental: The AChBP proteins were expressed and purified according to Hansen et al.. Determination of compound affinity for an AChBP utilized a modification of the Scintillation Proximity Assay reported previously. […] Plates were read on a 1450 MicroBeta TriLux liquid scintillation counter (Wallac) and the output normalized. […] The IC50 values were calculated using GraphPad Prism version 4.02 (GraphPad Software, 2006, San Diego, CA, USA, www.graphpad.com).
Result type: IC50 (µM)
Answers are plain numbers, in µM.

Compound | IC50, µM
CN(C)C1CSSC1 [NTX, 4-dimethylamino-1,2-dithiolane, reference compound] | 160

Next compound, please.
Ask | IC50 lookup needed for "C[N+](C)(C)C1CSSC1" , thanks.
Reply | 41

---

Lymnaea stagnalis AChBP (Lymnaea stagnalis) pIC50 data
Give bare numbers, as −log10 of the molar value.

Take a look at these entries with their results.
Compound | pIC50
C[N+](C)(C)C1CSCSC1 [TMA-DT, 5-trimethylamino-1,3-dithiane] | 5.43
CN(C)C1CSSC1 [NTX, 4-dimethylamino-1,2-dithiolane, reference compound] | 3.85
C[N+](C)(C)C1CSSC1 [MeNTX, N-methylnereistoxin] | 3.79

Ask | Name the reported pIC50 value associated with the compound CN(C)C1CSCSC1 [DMA-DT, 5-dimethylamino-1,3-dithiane]
Reply | 4.66

---

target: A. californica BP Y55W mutant (Aplysia californica, UniProt Q8WSF8, Y72W); assay: [3H]-epibatidine scintillation proximity binding assay, Ac AChBP Y55W mutant; details: inhibition of [3H]-epibatidine binding; read-out: IC50 ± SEM, Ac BP Y55W
Sequence (Q8WSF8 entry or part of it Y72W): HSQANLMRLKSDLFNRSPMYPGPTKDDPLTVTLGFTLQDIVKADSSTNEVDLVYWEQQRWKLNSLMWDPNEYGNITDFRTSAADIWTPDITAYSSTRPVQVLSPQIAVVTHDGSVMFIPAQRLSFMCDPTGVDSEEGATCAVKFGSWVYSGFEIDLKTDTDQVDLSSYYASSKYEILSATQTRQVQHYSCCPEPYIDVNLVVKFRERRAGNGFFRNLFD
Result type: pIC50
One number for each entry, as −log10 of the molar value.

Molecule | Result type | Measured value
C[N+](C)(C)C1CSSC1 | pIC50 | 4.13
CN(C)C1CSCSC1 | pIC50 | 4.38
C[N+](C)(C)C1CSCSC1 | pIC50 | 4.74

# input for lookup
Ask | What is its pIC50 for A. californica BP Y55W mutant (Aplysia californica, UniProt Q8WSF8, Y72W)? Entry: CN(C)C1CSSC1 [NTX, 4-dimethylamino-1,2-dithiolane, reference compound]
Reply | 3.96

src = paper PMC8777805
